Measured Muscle accompanies every entry in the list below.
- Test system: LNCaP tumor-transplanted mouse
- experiment_notes: Internal radioactivity distribution using LNCaP tumor-transplanted mouse
- Assay type: in vivo
- measurement_conditions: 96 h after administration
- Experimental: The animal test was performed in compliance with the guidelines of Kyoto University Animal Experiment Committee. […] LNCaP or PC-3 tumor-implanted mice were administered saline solutions (185 kBq, 100 μL) of [^111In]In-PSMA-DA1 or [^111In]In-PSMA-DB from the tail vein (n=3 each). […] Thereafter, blood and each organ were recovered, and the mass and radioactivity of the organs were measured. […]
// units = % ID/g; emit number, no label

>>> measured_value("O=C([O-])CN(Cc1cccc(C(=O)[O-])n1)C[C@H](Cc1ccc(NC(=O)[C@H](CCCCNC(=O)CCC(=O)NCCCC[C@H](NC(=O)N[C@@H](CCC(=O)O)C(=O)O)C(=O)O)NC(=O)CCCc2ccc(I)cc2)cc1)N(CC(=O)[O-])Cc1cccc(C(=O)[O-])n1.[111In+3] [[^111In]In-Octapa-2]")
0.05

As a next step, examine the compound that follows.
INPUT: Check the records and state Muscle for O=C([O-])CN1CCN(C(CCC(=O)NCCCC[C@H](NC(=O)N[C@@H](CCC(=O)O)C(=O)O)C(=O)O)C(=O)[O-])CCN(CC(=O)[O-])CCN(C(CCC(=O)Nc2ccccc2)C(=O)[O-])CC1.[111In+3] (some centres unmarked) [[^111In]In-PSMA-DB, reference compound]
OUTPUT: 0.14

---

LNCaP Tumor listing for selected molecules.
- System: LNCaP tumor-transplanted mouse
- experiment_notes: Internal radioactivity distribution using LNCaP tumor-transplanted mouse
- Type: in vivo
- measurement_conditions: 4 h after administration
Could you give me the number in % ID/g? Just the number is fine.

Known LNCaP Tumor results, listed for orientation:
>>> measured_value("O=C([O-])CN1CCN(C(CCC(=O)NCCCC[C@H](NC(=O)N[C@@H](CCC(=O)O)C(=O)O)C(=O)O)C(=O)[O-])CCN(CC(=O)[O-])CCN(C(CCC(=O)Nc2ccccc2)C(=O)[O-])CC1.[111In+3] (some centres unmarked) [[^111In]In-PSMA-DB, reference compound]")
2.50
>>> measured_value("O=C([O-])CN(Cc1cccc(C(=O)[O-])n1)C[C@H](Cc1ccc(NC(=O)[C@H](CCCCNC(=O)CCC(=O)NCCCC[C@H](NC(=O)N[C@@H](CCC(=O)O)C(=O)O)C(=O)O)NC(=O)CCCc2ccc(I)cc2)cc1)N(CC(=O)[O-])Cc1cccc(C(=O)[O-])n1.[111In+3] [[^111In]In-Octapa-2]")
13.7

INPUT: Entry O=C([O-])CN(CCN(CCc1ccc(NC(=O)CCCCCNC(=O)CCC(=O)NCCCC[C@H](NC(=O)N[C@@H](CCC(=O)O)C(=O)O)C(=O)O)cc1)CCN(CC(=O)[O-])Cc1cccc(C(=O)[O-])n1)Cc1cccc(C(=O)[O-])n1.[111In+3] [[^111In]In-Neunpa-1, reference compound] needs its LNCaP Tumor filled in; supply it.
OUTPUT: 0.69

INPUT: Specify measured LNCaP Tumor for O=C([O-])CN(Cc1cccc(C(=O)[O-])n1)C[C@H](Cc1ccc(NC(=O)[C@H](CCCCNC(=O)CCC(=O)NCCCC[C@H](NC(=O)N[C@@H](CCC(=O)O)C(=O)O)C(=O)O)NC(=O)COCCOCCOCC(=O)N[C@@H](CCCCNC(=O)CCCc2ccc(I)cc2)C(=O)O)cc1)N(CC(=O)[O-])Cc1cccc(C(=O)[O-])n1.[111In+3] [[^111In]In-Octapa-3] .
OUTPUT: 11.3

INPUT: Output measured LNCaP Tumor for this item: O=C(O)CC[C@H](NC(=O)N[C@@H](CCCCNC(=O)[C@H](Cc1ccc2ccccc2c1)NC(=O)[C@H]1CC[C@H](CNC(=O)CCC(C(=O)O)N2CCN(CC(=O)O)CCN(C(CCC(=O)N[C@@H](CCCCNC(=O)CCCc3ccc(I)cc3)C(=O)O)C(=O)O)CCN(CC(=O)O)CC2)CC1)C(=O)O)C(=O)O (some centres unmarked) [[^111In]In-PSMA-NAT-DA1, metal not drawn]
OUTPUT: 43.6

INPUT: Please report LNCaP Tumor for the following molecule: O=C([O-])CN1CCN(C(CCC(=O)NCCCC[C@H](NC(=O)N[C@@H](CCC(=O)O)C(=O)O)C(=O)O)C(=O)[O-])CCN(CC(=O)[O-])CCN(C(CCC(=O)N[C@@H](CCCCNC(=O)CCCc2ccc(I)cc2)C(=O)O)C(=O)[O-])CC1.[111In+3] (some centres unmarked) [[^111In]In-PSMA-DA1]
OUTPUT: 12.1

INPUT: Give a short answer stating reported LNCaP Tumor for O=C([O-])CN(CCN(CCc1ccc(NC(=O)[C@H](CCCCNC(=O)CCC(=O)NCCCC[C@H](NC(=O)N[C@@H](CCC(=O)O)C(=O)O)C(=O)O)NC(=O)CCCc2ccc(I)cc2)cc1)CCN(CC(=O)[O-])Cc1cccc(C(=O)[O-])n1)Cc1cccc(C(=O)[O-])n1.[111In+3] [[^111In]In-Neunpa-2] .
OUTPUT: 8.57

INPUT: Determine from records and report LNCaP Tumor for O=C([O-])CN(Cc1cccc(C(=O)[O-])n1)C[C@H](Cc1ccc(NC(=O)CCCCCNC(=O)CCC(=O)NCCCC[C@H](NC(=O)N[C@@H](CCC(=O)O)C(=O)O)C(=O)O)cc1)N(CC(=O)[O-])Cc1cccc(C(=O)[O-])n1.[111In+3] [[^111In]In-Octapa-1, reference compound]
OUTPUT: 4.73
